test-protocol: Solubility of Diamine in various kinds of solvents
Assay type: physicochemical
conditions: organic solvent or mixture, thermodynamic from solid; Sample 30 mg/solvent 2 mL; DMF (N,N-dimethylformamide); read-out: Solubility in DMF
solubility by entry:

`Nc1cccc(C(=O)Oc2ccc(C(c3ccc(OC(=O)c4cccc(N)c4)cc3)(C(F)(F)F)C(F)(F)F)cc2)c1` has a reported solubility of > 15 mg/mL

# molecule `Cc1cc(OC(=O)c2cccc(N)c2)ccc1OC(=O)c1cccc(N)c1` ; its solubility = > 15 mg/mL

* * *

test-protocol: Solubility of Diamine in various kinds of solvents
Assay type: physicochemical
conditions: organic solvent or mixture, thermodynamic from solid; Sample 30 mg/solvent 2 mL; DMF (N,N-dimethylformamide); read-out: Solubility in DMF
# solubility per entry

Notebook: Nc1cccc(C(=O)Oc2ccc(S(=O)(=O)c3ccc(OC(=O)c4cccc(N)c4)cc3)cc2)c1 [Example 4, bis[4-(3-aminobenzoyloxy)phenyl]sulfone] , solubility read as > 15 mg/mL

For Nc1ccc(C(=O)Oc2ccc(OC(=O)c3ccc(N)cc3)cc2)cc1 [Com. Ex. 1, 1,4-bis(4-aminobenzoyloxy)benzene, reference compound] the compound record lists solubility as < 15 mg/mL

Recorded solubility (compound Cc1cc(OC(=O)c2cccc(N)c2)c(C)c(C)c1OC(=O)c1cccc(N)c1 [Example 8] ): > 15 mg/mL

The compound identified as Cc1cc(OC(=O)c2ccc(N)cc2)ccc1OC(=O)c1ccc(N)cc1 [Com. Ex. 2, 2,5-bis(4-aminobenzoyloxy)toluene, reference compound] registered its solubility at > 15 mg/mL
